Assayed Target: G protein-coupled receptor 88 (Homo sapiens)
Sequence (Q9GZN0 whole entry): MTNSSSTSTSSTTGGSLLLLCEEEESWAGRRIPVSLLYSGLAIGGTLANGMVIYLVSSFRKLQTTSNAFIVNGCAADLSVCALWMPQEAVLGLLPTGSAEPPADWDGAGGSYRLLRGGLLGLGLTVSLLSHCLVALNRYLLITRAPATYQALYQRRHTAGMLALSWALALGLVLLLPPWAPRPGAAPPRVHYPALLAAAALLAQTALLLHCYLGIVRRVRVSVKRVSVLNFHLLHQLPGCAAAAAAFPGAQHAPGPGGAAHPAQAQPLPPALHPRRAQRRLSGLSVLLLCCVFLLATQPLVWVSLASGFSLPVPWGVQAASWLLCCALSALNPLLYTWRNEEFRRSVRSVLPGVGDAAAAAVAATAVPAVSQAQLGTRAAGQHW
Assay Remarks: Agonist activity at GPR88 (unknown origin) transfected into cells assessed as cAMP accumulation by HTRF assay
Give measured EC50 for each item. Keep answers brief.
The answer is to be given in nM; state only the numeric part.

Prompt: Could you tell me which EC50 is on file for CC[C@H](C)[C@H](N)CN(C(=O)[C@@H]1C[C@H]1c1ccccc1)c1ccc(-c2ccc(NC(C)=O)cc2)cc1 ?
Response: 5500

Prompt: Report EC50 for CC[C@H](C)[C@H](N)CN(C(=O)[C@@H]1C[C@H]1c1ccccn1)c1ccc(-c2ccccc2)cc1 please.
Response: 130

Prompt: I am curious: what EC50 value has been reported for CC[C@H](C)[C@H](N)CN(C(=O)[C@@H]1C[C@H]1c1cc(F)ccc1F)c1ccc(-c2ccccc2)cc1 ?
Response: 770

Prompt: # lookup: EC50 of CC[C@H](C)[C@H](N)CN(C(=O)[C@@H]1C[C@H]1c1ccccc1)c1ccc(-c2ccc(OC(C)C)cc2)cc1
Response: 72

Prompt: Entry under review: CC[C@H](C)[C@H](N)CN(C(=O)[C@@H]1C[C@H]1c1ccc(F)cc1F)c1ccc(-c2ccccc2)cc1 . Reported EC50?
Response: 1300

Prompt: Any idea what EC50 was measured for CCc1ccc(-c2ccc(N(C[C@@H](N)[C@@H](C)CC)C(=O)[C@@H]3C[C@H]3c3ccccc3)cc2)cc1 ?
Response: 44

Prompt: Reported EC50, compound CC(C)C[C@H](N)CN(C(=O)[C@@H]1C[C@H]1c1ccccc1)c1ccc(C2=CCCCC2)cc1 : ____
Response: 1200

Prompt: Look at this compound and give its reported EC50. CC(C)C[C@H](N)CN(C(=O)[C@@H]1C[C@H]1c1ccccc1)c1ccc(-c2ccc(F)cc2)cc1
Response: 900

Prompt: Would you mind telling me what EC50 value was observed for CC[C@H](C)[C@H](N)CN(C(=O)[C@@H]1C[C@H]1c1ccncc1)c1ccc(-c2ccccc2)cc1 ?
Response: 1500

Prompt: Which measured EC50 value corresponds to CC[C@H](C)[C@H](N)CN(C(=O)[C@@H]1C[C@H]1c1csc(C)n1)c1ccc(-c2ccccc2)cc1 ?
Response: 1500

Prompt: What value of EC50 has been recorded for this entry: CC(C)C[C@H](N)CCN(C(=O)[C@@H]1C[C@H]1c1ccccc1)c1ccc(-c2ccccc2)cc1
Response: 3

Prompt: Endpoint output: EC50 of CC[C@H](C)[C@H](N)CN(C(=O)[C@@H]1C[C@H]1c1ccccc1)c1ccc(-c2ccc(CO)cc2)cc1 . Value?
Response: 1100

Prompt: Item under review: CCCc1ccc(-c2ccc(N(C[C@@H](N)[C@@H](C)CC)C(=O)[C@@H]3C[C@H]3c3ccccc3)cc2)cc1 . Reported EC50?
Response: 61

Prompt: Quick check: EC50 of CC[C@H](C)[C@H](N)CN(C(=O)[C@@H]1C[C@H]1c1ccccc1)c1ccc(-c2ccccc2)cc1 (racemic) ?
Response: 800

Prompt: Query: EC50; subject: CC(C)C[C@H](N)CN(C(=O)[C@@H]1C[C@H]1c1ccccc1)c1ccc(-c2ccccc2)cc1 (racemic)
Response: 880
